Quick record of IC50 values for S. aureus Alpha hemolysin (Staphylococcus aureus).

molecule: Cc1nc2cc(-c3ncc(NS(=O)(=O)c4nc5[nH]c(=O)c(=O)[nH]c5cc4C)cc3Cl)ccc2o1 [Compound 35]
experimental system: S. aureus Alpha hemolysin (Staphylococcus aureus)
Sequence (P09616 27-319 limits assumed): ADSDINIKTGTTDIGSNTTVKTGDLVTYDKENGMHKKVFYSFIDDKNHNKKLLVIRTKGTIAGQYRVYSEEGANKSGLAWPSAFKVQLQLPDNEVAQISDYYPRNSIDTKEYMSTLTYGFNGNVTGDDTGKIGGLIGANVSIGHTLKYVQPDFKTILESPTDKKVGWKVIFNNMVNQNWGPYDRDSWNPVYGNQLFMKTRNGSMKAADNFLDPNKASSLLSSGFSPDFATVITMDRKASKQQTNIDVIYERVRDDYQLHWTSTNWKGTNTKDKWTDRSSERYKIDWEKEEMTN
IC50: 100 to 1000 nM
--
molecule: Cc1cc2[nH]c(=O)c(=O)[nH]c2nc1S(=O)(=O)Nc1ccc(-c2ccc(F)cc2)c(C(F)(F)F)c1 [Compound 32]
experimental system: S. aureus Alpha hemolysin (Staphylococcus aureus)
IC50: 100 to 1000 nM
--
molecule: Cc1cc2[nH]c(=O)c(=O)[nH]c2nc1S(=O)(=O)Nc1ccc(-c2ccc3oc(C(C)C)nc3c2)c(Cl)c1 [Compound 37]
experimental system: S. aureus Alpha hemolysin (Staphylococcus aureus)
IC50: 100 to 1000 nM
--
molecule: Cc1nc2cc(-c3ccc(NS(=O)(=O)c4nc5[nH]c(=O)c(=O)[nH]c5cc4C)cc3Cl)cnc2o1 [Compound 39]
experimental system: S. aureus Alpha hemolysin (Staphylococcus aureus)
IC50: 30 to 100 nM
--
molecule: Cc1nc2cc(-c3ccc(NS(=O)(=O)c4nc5[nH]c(=O)c(=O)[nH]c5cc4C)cc3C(F)(F)F)ccc2o1 [Compound 38]
experimental system: S. aureus Alpha hemolysin (Staphylococcus aureus)
IC50: 100 to 1000 nM

input: I would be grateful if you could share the reported IC50 for Cc1cc2[nH]c(=O)c(=O)[nH]c2nc1S(=O)(=O)Nc1ccc(C2=CCCCC2)cc1 [Compound 20] .
output: 100 to 1000 nM

input: Now try Cc1nc2cc(-c3ccc(NS(=O)(=O)c4nc5[nH]c(=O)c(=O)[nH]c5cc4C)cc3Cl)ccc2o1 [Compound 15] .
output: 30 to 100 nM
